# key: entry, value: IC50
- subjectOfTest: fusion protein of TG1019 protein and Giα1 (Homo sapiens, UniProt P63096+Q8TDS5, C351I/D111G/K206E/T295A)
- Sequence (Q8TDS5+P63096 fused Q8TDS5:D111G/Q8TDS5:K206E/Q8TDS5:T295A/P63096:C351I): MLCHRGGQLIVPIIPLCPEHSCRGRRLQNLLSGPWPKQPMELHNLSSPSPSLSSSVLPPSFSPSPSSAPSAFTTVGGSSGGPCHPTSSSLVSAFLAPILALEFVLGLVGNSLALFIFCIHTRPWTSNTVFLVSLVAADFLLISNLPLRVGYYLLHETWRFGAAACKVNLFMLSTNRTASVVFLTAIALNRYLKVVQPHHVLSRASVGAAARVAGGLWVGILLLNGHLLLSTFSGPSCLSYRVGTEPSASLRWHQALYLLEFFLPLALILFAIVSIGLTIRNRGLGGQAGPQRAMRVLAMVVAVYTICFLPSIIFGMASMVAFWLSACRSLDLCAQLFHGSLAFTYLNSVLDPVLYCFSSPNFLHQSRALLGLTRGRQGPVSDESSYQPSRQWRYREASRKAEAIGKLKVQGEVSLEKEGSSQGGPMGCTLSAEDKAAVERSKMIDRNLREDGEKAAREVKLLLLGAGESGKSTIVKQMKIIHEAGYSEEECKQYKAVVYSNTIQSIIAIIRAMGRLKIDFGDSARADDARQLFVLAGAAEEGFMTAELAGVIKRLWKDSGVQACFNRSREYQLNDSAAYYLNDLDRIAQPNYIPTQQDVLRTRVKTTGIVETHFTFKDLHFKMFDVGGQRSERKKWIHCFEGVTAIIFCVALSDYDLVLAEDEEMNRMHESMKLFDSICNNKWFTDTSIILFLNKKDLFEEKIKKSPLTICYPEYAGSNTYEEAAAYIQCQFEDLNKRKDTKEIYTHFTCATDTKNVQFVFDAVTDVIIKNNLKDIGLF
- assayInfo: Antagonist assay: inhibition of 5-oxo-ETE-stimulated G-protein activation ([35S]GTPγS binding) of TG1019-Giα1 fusion membrane fraction
- runConditions: inhibition of G-protein activating effect of TG1019 by 5-oxo-ETE 0.1 μM
Dear colleague, please return just the value in µM, with no unit written.

INSERT INTO assay_data (compound, recordedresult) VALUES
  ('CC/C=C\C/C=C\C/C=C\C/C=C\C/C=C\C/C=C\CCC(=O)O', 1.6),
  ('CC/C=C\C/C=C\C/C=C\CCCCCCCCCC(=O)O [Eicosa-11Z, 14Z, 17Z-trienoic acid]', 5.1),
  ('CCCCC/C=C\C/C=C\C/C=C\CCCCCCC(=O)O', 3.7);

Kindly consider the entry below.
Problem: Can you share its IC50? I mean this compound: CC/C=C\C/C=C\C/C=C\C/C=C\C/C=C\CCCC(=O)O
Result: 6
